measurement target: T1, rat NGF (rat, UniProt P25427 122-241)
T1 construct: also called rN
T1 sequence (P25427 122-241 limits assumed): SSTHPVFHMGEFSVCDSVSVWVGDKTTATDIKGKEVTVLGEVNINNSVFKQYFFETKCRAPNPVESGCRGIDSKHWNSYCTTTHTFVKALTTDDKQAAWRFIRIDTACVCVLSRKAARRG
test description: SPR (Biacore T200), 100 nM mAb on NGF chip, similarity to parent mAb
quantity name: Percent Similarity Score (KD on rN) (%)
Write the number in % without appending the unit.

Illustrative cases are given below, each with its answer.
binder	units label	Percent Similarity Score (KD on rN)
can9L12VL_S91A (antibody, V domains shown) VH: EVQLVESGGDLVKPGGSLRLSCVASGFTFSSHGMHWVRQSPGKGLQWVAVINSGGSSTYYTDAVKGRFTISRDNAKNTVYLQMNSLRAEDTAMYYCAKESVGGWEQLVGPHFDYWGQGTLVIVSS VL: QSVLTQPTSVSGSLGQRVTISCSGSTNNIGILGASWYQLFPGKAPKLLVYGNGNRPSGVPDRFSGADSGDSVTLTITGLQAEDEADYYCQAFDTTLGAHVFGGGTHLTVL	%	14.5
can9L12VH_G55A (antibody, V domains shown) VH: EVQLVESGGDLVKPGGSLRLSCVASGFTFSSHGMHWVRQSPGKGLQWVAVINSGASSTYYTDAVKGRFTISRDNAKNTVYLQMNSLRAEDTAMYYCAKESVGGWEQLVGPHFDYWGQGTLVIVSS VL: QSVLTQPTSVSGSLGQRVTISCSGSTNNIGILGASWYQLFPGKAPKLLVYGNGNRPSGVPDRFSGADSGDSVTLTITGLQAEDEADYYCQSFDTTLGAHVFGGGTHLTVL	%	99.3
can48L2VL_G53A (antibody, V domains shown, CDR scanning mutant of ZTS-842 (48L2)) VH: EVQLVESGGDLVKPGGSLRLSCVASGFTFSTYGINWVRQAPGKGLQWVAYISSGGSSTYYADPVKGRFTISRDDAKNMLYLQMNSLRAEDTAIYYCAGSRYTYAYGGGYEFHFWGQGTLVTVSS VL: QAVLNQPASVSGALGQKVTISCSGSTMDIDIFGVSWYQQLPGKAPKLLVDSDADRPSGIPDRFSGSRSGNSGTLTITGLQAEDEADYHCQSGDSTLGALAIFGGGTHVTVL	%	100

Q) Please report the recorded Percent Similarity Score (KD on rN) for can48L2VH_T31A (antibody, V domains shown, CDR scanning mutant of ZTS-842 (48L2)) VH: EVQLVESGGDLVKPGGSLRLSCVASGFTFSAYGINWVRQAPGKGLQWVAYISSGGSSTYYADPVKGRFTISRDDAKNMLYLQMNSLRAEDTAIYYCAGSRYTYAYGGGYEFHFWGQGTLVTVSS VL: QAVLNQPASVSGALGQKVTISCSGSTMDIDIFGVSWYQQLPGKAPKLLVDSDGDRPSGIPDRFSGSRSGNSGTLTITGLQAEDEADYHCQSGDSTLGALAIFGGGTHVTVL .
A) 99.9

Q) Entry to check: can48L2VL_T95A (antibody, V domains shown, CDR scanning mutant of ZTS-842 (48L2)) VH: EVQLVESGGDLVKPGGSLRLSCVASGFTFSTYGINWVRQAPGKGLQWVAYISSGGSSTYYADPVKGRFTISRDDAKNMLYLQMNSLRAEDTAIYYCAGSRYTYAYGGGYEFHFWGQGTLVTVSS VL: QAVLNQPASVSGALGQKVTISCSGSTMDIDIFGVSWYQQLPGKAPKLLVDSDGDRPSGIPDRFSGSRSGNSGTLTITGLQAEDEADYHCQSGDSALGALAIFGGGTHVTVL
A) 99.4

Q) Next binder up: can9L12VH_H32A (antibody, V domains shown) VH: EVQLVESGGDLVKPGGSLRLSCVASGFTFSSAGMHWVRQSPGKGLQWVAVINSGGSSTYYTDAVKGRFTISRDNAKNTVYLQMNSLRAEDTAMYYCAKESVGGWEQLVGPHFDYWGQGTLVIVSS VL: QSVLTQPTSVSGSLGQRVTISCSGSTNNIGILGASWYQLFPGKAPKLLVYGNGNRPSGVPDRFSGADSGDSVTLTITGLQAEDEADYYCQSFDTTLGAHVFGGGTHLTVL
A) 51.5
